# System: RARg:RXRa (NR concentration 270 nM, RXRa partner concentration 90 nM)
# TEST_PROTOCOL: PBM binding z-score (relative to random genomic background probes); higher = stronger binding; sequences stand for … in GC…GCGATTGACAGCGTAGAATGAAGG
READOUT_NAME: PBM binding z-score

>>> obs_value("CCTTACGGGCCAAGGTTATAGCACGGGTGGTACG")
0.306
>>> obs_value("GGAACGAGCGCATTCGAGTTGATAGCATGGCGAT")
-0.544
>>> obs_value("TGAATGAGGTTATTAGATCAGGGAACGTTGCAAA")
1.36
>>> obs_value("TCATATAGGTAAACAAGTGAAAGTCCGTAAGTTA")
0.396
>>> obs_value("ATCTCGAGGTAACCAAGTTCAGTGAATGCCGAAC")
0.86
>>> obs_value("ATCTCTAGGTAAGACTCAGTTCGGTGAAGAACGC")
0.0648
>>> obs_value("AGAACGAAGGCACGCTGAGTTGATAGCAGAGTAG")
-0.198
>>> obs_value("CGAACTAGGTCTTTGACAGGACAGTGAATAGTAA")
0.112
>>> obs_value("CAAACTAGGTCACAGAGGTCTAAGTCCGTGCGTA")
4.44
>>> obs_value("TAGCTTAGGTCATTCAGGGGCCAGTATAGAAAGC")
6.43
>>> obs_value("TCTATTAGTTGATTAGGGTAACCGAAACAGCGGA")
0.525
>>> obs_value("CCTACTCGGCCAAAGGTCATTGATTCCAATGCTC")
6.07
>>> obs_value("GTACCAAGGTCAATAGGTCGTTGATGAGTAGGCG")
6.58
>>> obs_value("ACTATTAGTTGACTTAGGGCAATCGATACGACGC")
0.781
>>> obs_value("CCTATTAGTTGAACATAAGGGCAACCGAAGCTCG")
1.48
>>> obs_value("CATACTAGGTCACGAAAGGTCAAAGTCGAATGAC")
7.94
>>> obs_value("ATCGAAAGGTCGAGGTAAGTATAGAGAAAGGGAA")
4.25
>>> obs_value("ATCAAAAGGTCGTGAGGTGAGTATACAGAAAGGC")
4.87
>>> obs_value("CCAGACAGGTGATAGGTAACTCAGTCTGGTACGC")
0.156
>>> obs_value("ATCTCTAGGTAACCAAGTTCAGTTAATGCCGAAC")
1.09
>>> obs_value("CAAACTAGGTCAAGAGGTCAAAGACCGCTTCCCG")
8.18
>>> obs_value("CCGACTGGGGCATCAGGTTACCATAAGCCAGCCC")
0.461
>>> obs_value("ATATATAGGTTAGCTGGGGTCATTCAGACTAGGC")
4.47
>>> obs_value("GCTCGGAGAACAAGGTCAGAGCTTTGTCCGTAGA")
2.39
>>> obs_value("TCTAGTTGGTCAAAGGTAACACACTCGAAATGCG")
1.97
>>> obs_value("TGAATGAGGTTATAACATCAGGGAACGTTGCAAA")
1.33
>>> obs_value("GCGACTGGGGCATCAGCAGGGTACCATAACTTAA")
0.0941
>>> obs_value("GCTAGCAGGCCATTTAGGTCACTCAATGACGGGC")
1.47
>>> obs_value("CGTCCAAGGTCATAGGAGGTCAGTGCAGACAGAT")
6.63
>>> obs_value("ACAGACAGGTGATGAAGGTATCTCAGGCTATCAT")
0.119

---

# Tested on: VDR:RXRa (NR concentration 270 nM, RXRa partner concentration 90 nM)
# TEST_PROTOCOL: PBM binding z-score (relative to random genomic background probes); higher = stronger binding; sequences stand for … in GC…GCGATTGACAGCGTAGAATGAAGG
Measured PBM binding z-score, listed per entry for reference.
READOUT_NAME: PBM binding z-score

>>> obs_value("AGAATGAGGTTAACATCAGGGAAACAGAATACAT")
1.75
>>> obs_value("TTGAGTAGGTTACCAATGGGGCATTCAGCTTTCT")
0.365
>>> obs_value("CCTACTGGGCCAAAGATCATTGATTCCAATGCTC")
-0.31
>>> obs_value("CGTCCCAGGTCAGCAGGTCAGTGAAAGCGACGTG")
2.54
>>> obs_value("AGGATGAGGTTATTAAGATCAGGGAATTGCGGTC")
2.66
>>> obs_value("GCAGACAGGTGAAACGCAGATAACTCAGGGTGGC")
-0.407
>>> obs_value("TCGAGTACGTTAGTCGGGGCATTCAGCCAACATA")
0.707
>>> obs_value("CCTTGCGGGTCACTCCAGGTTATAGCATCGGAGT")
3.51
>>> obs_value("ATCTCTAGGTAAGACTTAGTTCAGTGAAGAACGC")
0.582
>>> obs_value("ATAATGAGGTTACCAAAGATCAGGGAAACGCTTG")
1.81
>>> obs_value("CGTCCAAGGTCATAGGAGGTTAGTGAAGACAGAT")
5
>>> obs_value("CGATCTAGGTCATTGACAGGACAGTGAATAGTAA")
2.09
>>> obs_value("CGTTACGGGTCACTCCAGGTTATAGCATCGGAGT")
4.5
>>> obs_value("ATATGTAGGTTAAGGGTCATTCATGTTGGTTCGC")
5.08
>>> obs_value("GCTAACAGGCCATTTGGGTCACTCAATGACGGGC")
1.45
>>> obs_value("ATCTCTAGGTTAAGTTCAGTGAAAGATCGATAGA")
2.37
>>> obs_value("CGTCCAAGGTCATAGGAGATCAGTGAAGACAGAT")
4.3
>>> obs_value("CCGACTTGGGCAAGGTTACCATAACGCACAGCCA")
0.176
>>> obs_value("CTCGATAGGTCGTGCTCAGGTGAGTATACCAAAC")
0.637
>>> obs_value("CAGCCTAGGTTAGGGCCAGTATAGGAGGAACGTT")
-0.611
>>> obs_value("CCTAGCAGGCCAATCTGGGTAACTCAAGGCTTGA")
-0.773
>>> obs_value("AGAATGAGGTTAAGATCAGGGAGACAGAATACAT")
1.24
>>> obs_value("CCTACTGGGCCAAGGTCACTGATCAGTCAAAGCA")
2.92
>>> obs_value("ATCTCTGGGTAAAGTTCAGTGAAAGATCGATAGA")
1.64
>>> obs_value("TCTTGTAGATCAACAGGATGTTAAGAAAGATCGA")
0.149
>>> obs_value("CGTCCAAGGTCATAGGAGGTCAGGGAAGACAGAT")
6.49
>>> obs_value("TCTTGTAGATTAATAGAGGTTAAGAAAGTGCGCT")
2.11
>>> obs_value("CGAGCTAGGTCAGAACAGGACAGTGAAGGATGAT")
0.446
>>> obs_value("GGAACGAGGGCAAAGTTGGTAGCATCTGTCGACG")
1.14
>>> obs_value("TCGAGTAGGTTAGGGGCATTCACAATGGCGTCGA")
0.522
>>> obs_value("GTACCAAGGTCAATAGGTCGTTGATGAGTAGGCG")
4.69
>>> obs_value("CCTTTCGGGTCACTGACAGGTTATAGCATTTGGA")
3.86
>>> obs_value("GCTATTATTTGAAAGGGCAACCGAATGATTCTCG")
0.646
>>> obs_value("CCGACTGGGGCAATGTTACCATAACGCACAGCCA")
-0.586
>>> obs_value("ATCTCTAGGTAAGACTCAGTTCAATGAAGAACGC")
1.07
>>> obs_value("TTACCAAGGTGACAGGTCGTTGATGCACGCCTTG")
0.821
>>> obs_value("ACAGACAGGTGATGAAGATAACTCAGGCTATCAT")
-0.422
>>> obs_value("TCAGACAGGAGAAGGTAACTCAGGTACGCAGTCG")
0.714
>>> obs_value("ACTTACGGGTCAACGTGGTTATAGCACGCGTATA")
4.96
>>> obs_value("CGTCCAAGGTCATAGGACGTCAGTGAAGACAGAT")
4.13

---

# System: PPARg:RXRa 30nM:10nM, anti-RXR (NR concentration 30 nM, RXRa partner concentration 10 nM)
# TEST_PROTOCOL: PBM binding z-score (relative to random genomic background probes); higher = stronger binding; sequences stand for … in GC…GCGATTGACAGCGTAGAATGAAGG
READOUT_NAME: PBM binding z-score

>>> obs_value("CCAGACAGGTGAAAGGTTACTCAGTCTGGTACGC")
5.84
>>> obs_value("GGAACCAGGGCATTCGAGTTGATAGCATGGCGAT")
-0.134
>>> obs_value("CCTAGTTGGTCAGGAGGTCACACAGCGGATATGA")
1.76
>>> obs_value("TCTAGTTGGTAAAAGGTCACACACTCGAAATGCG")
8.09

FYI, the data here is from the supplement of paper PMC6555819.
